species: Danio rerio; assay: Antimelanogenic activity against zebrafish embryo assessed as whitening efficacy at 10 uM; type: functional, organism-based
The source made the active and inactive calls. The rule behind the calls is not given here.
Choose one outcome from this list and give only that: 1 (active), 0 (inactive)

### Prompt Outcome logged for Fc1ccc(Sc2nccc3ccccc23)c(F)c1 in this assay:
### Response 1

### Prompt Outcome logged for c1ccc2c(Sc3nccc4ccccc34)nccc2c1 in this assay:
### Response 1

### Prompt Answer briefly: the call reported for c1cnc(Sc2nccc3ccccc23)nc1 in this assay.
### Response 1

### Prompt Give the logged outcome of this assay for the following compound: Fc1ccc(Sc2nccc3ccccc23)cc1
### Response 1

### Prompt Each compound tested received a call. Report the one for FC(F)(F)c1ccc(Sc2nccc3ccccc23)cc1 .
### Response 0

### Prompt For c1ccc(Sc2nccc3ccccc23)nc1 , what call appears in the results of this test?
### Response 1

### Prompt # fetch the recorded call for Fc1ccc(Nc2nccc3ccccc23)cc1 here
### Response 0

### Prompt What call does the record list for Fc1ccc(Oc2nccc3ccccc23)cc1 ?
### Response 0

### Prompt GET /call?item= Nc1ccc(Sc2nccc3ccccc23)cc1 returns the recorded outcome of this test.
### Response 1

### Prompt So what was the verdict on Cc1ccc(Sc2nccc3ccccc23)cc1 in this test?
### Response 1

### Prompt Hi, sorry to bother you, what did the test record for Fc1ccc(Sc2ncnc3c(Br)csc23)cc1 ?
### Response 1

### Prompt Call for entry CCOC(=O)c1ccc(Sc2nccc3ccccc23)cc1 :
### Response 1

### Prompt Which result was noted for this compound in the test: c1ccc2c(Sc3nc4ccccc4[nH]3)nccc2c1
### Response 1

### Prompt Per the assay record, what outcome was assigned to c1ccc2c(Sc3nc4ccccc4s3)nccc2c1 ?
### Response 0
